# test.target: soybean LOX type 1b (sLOX-1) (Glycine max, UniProt P08170)
# Sequence (P08170 whole entry): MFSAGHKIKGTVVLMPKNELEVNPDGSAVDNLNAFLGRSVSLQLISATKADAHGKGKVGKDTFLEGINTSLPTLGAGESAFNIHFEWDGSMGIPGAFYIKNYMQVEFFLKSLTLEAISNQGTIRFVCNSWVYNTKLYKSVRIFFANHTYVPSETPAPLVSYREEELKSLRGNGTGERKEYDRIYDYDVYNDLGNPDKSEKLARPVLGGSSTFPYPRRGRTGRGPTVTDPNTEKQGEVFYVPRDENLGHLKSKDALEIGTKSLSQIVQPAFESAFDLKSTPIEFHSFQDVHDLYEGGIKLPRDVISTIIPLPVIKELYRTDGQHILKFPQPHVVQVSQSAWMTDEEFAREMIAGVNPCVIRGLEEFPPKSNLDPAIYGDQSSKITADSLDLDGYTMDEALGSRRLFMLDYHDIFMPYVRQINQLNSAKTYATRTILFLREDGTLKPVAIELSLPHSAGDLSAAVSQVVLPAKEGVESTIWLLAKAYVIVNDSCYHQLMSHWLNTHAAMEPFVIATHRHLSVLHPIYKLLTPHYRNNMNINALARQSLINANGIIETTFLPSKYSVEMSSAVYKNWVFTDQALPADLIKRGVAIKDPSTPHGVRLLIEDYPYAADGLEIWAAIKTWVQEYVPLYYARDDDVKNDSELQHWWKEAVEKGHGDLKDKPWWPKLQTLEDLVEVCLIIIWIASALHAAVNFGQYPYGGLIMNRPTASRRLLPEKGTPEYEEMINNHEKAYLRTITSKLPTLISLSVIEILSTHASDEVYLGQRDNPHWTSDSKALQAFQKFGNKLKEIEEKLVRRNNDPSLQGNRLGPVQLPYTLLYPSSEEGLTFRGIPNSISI
# assay.comment: Soybean lipoxygenase inhibition study in vitro
# Assay type: biochemical
# stated.conditions: soybean LOX type 1b; means of three determinations, deviation <10% of the mean; read-out: IC50
Response field label: string, one of label 1 (IC50 strictly below 90 µM) or label 0.

[
  {
    "record.smiles": "COc1c(C)c2c(c(O)c1C/C=C(\\C)CCC(=O)Nc1nc(C)cs1)C(=O)OC2",
    "answer.label": "label 1"
  },
  {
    "record.smiles": "COc1c(C)c2c(c(O)c1C/C=C(\\C)CCC(=O)Nc1nc3c(s1)CCCC3)C(=O)OC2",
    "answer.label": "label 1"
  },
  {
    "record.smiles": "COc1c(C)c2c(c(O)c1C/C=C(\\C)CCC(=O)Nc1ncc(C)s1)C(=O)OC2",
    "answer.label": "label 1"
  },
  {
    "record.smiles": "COc1c(C)c2c(c(OC)c1C/C=C(\\C)CCC(=O)Nc1nccs1)C(=O)OC2",
    "answer.label": "label 0"
  },
  {
    "record.smiles": "COc1c(C)c2c(c(O)c1C/C=C(\\C)CCC(=O)Nc1nc3c(s1)CCC3)C(=O)OC2",
    "answer.label": "label 1"
  },
  {
    "record.smiles": "CCOC(=O)c1sc(NC(=O)CC/C(C)=C/Cc2c(O)c3c(c(C)c2OC)COC3=O)nc1C",
    "answer.label": "label 1"
  },
  {
    "record.smiles": "COc1ccc2nc(NC(=O)CC/C(C)=C/Cc3c(O)c4c(c(C)c3OC)COC4=O)sc2c1",
    "answer.label": "label 0"
  }
]
